Target: Cytochrome P450 1A2 (Homo sapiens, UniProt P05177); also: in other assays of this panel Not Active means under 50% inhibition at 10 µM
Sequence (P05177 whole entry): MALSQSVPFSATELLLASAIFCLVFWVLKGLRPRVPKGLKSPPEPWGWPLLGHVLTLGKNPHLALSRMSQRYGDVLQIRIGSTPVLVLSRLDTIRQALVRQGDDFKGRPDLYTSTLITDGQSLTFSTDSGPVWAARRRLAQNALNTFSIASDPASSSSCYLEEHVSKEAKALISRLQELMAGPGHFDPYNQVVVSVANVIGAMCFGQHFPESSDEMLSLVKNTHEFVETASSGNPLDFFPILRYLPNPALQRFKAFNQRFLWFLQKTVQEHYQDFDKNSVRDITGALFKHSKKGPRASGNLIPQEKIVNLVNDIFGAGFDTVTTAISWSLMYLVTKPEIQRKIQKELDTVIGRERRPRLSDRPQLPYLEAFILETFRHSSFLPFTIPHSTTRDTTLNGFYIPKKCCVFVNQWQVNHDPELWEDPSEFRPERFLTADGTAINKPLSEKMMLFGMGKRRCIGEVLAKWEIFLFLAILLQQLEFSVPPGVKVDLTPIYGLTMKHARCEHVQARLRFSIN
Assay Readout: pIC50
A value of pIC50 is the negative decimal logarithm of a concentration given in moles per litre.

// below: answered compounds
Compound	Assay Readout	Measured Value
CN1CCN(CCCN2c3ccccc3Sc3ccc(Cl)cc32)CC1	pIC50	5.70
Cc1ccc2cc3c(ccc4ccccc43)c3c2c1CC3	pIC50	6.52
Cc1oncc1C(=O)Nc1ccc(C(F)(F)F)cc1 [LEFLUNOMIDE]	pIC50	6.30
c1ccc2c(c1)c1cccc3ccc4cccc2c4c31 [BENZO[E]PYRENE]	pIC50	7.00

Please look at the following compound next.
In plain terms, CSc1ccc(/C=C2/C(C)=C(CC(=O)O)c3cc(F)ccc32)cc1 [SULINDAC SULFIDE] has a documented pIC50 of 5.70

---

Molecular target: Cytochrome P450 3A4 (Homo sapiens); also: in other assays of this panel Not Active means under 50% inhibition at 10 µM
Sequence (P08684 whole entry): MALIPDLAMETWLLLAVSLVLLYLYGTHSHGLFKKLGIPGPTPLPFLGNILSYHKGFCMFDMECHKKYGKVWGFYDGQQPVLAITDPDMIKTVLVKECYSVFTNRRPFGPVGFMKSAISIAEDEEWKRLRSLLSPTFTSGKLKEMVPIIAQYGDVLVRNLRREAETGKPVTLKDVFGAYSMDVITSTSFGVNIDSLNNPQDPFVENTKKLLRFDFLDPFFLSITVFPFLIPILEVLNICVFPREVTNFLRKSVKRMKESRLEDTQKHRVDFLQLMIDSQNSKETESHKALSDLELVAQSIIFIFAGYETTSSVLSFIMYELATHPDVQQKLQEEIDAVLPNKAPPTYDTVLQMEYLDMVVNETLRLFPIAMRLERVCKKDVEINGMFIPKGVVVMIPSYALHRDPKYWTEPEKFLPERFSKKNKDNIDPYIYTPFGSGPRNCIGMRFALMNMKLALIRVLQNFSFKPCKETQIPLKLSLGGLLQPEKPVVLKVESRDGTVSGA
Assay Readout: pIC50
As a rule, pIC50 stands for the negative log10 of the concentration, concentration in M.

Summary line: CC(C)[C@H]1C(=O)N2CCC[C@H]2[C@]2(O)O[C@](NC(=O)[C@@H]3C=C4c5cccc6[nH]cc(c56)C[C@H]4N(C)C3)(C(C)C)C(=O)N12 , Cytochrome P450 3A4 (Homo sapiens), reported pIC50 = 6.30

---

Molecular target: Melanocortin receptor 3 (Homo sapiens, UniProt P41968); also: in other assays of this panel Not Active means under 50% inhibition at 10 µM
Sequence (P41968 whole entry): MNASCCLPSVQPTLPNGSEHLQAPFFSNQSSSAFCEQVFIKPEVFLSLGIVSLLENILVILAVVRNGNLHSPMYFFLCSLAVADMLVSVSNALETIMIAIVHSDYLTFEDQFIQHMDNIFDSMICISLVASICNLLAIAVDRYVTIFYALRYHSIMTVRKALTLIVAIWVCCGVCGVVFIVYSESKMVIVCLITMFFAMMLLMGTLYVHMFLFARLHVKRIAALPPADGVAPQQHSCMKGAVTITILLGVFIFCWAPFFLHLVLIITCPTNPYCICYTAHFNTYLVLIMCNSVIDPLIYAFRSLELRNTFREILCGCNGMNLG
Assay type: cell membranes, HEK293, Membrane
Settings: read-out: Ki
Assay Readout: Ki
Write down the value, and be sure its unit follows.

Note to self: Ki recorded for CC/C(=C(\c1ccccc1)c1ccc(OCCN(C)C)cc1)c1ccccc1 [TAMOXIFEN] was 17.3 µM

---

Target: Voltage-gated inwardly rectifying potassium channel KCNH2 (Homo sapiens); also: in other assays of this panel Not Active means under 50% inhibition at 10 µM
Sequence (Q12809 whole entry): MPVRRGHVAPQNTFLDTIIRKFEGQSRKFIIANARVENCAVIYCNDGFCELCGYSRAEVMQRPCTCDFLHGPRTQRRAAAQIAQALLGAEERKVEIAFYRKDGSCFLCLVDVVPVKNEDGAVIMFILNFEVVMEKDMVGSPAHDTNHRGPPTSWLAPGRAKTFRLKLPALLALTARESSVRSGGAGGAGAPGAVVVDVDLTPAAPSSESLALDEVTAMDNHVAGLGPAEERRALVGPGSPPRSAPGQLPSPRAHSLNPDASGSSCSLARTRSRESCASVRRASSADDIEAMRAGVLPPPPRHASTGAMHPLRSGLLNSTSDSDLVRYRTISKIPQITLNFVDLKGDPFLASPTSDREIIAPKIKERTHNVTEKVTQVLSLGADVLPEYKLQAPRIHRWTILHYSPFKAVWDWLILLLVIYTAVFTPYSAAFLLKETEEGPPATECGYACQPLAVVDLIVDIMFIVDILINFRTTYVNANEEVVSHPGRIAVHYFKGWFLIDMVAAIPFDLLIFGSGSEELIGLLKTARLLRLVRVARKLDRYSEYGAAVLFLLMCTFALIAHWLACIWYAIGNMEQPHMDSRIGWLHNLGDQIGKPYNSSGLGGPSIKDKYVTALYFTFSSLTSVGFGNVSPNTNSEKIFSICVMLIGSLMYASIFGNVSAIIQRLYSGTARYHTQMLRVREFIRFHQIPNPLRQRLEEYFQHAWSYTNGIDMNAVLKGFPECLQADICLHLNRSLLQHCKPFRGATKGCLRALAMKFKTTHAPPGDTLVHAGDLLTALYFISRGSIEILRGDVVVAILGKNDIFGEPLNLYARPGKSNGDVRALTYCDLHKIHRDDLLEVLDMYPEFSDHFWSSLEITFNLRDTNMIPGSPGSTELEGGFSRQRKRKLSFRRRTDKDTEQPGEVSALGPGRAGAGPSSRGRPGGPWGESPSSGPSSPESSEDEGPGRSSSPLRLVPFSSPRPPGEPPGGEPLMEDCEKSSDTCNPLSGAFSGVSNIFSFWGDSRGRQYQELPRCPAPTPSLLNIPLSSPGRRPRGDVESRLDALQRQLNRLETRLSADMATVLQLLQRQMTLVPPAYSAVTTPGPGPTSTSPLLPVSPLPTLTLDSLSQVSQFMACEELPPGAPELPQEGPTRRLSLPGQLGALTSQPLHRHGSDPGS
Conditions: hek293
Assay Readout: Ki

Study these solved cases before continuing.
Molecule	System Name	Measured Value
CN(C)c1nc(N(C)C)nc(N(C)C)n1	Voltage-gated inwardly rectifying potassium channel KCNH2 (Homo sapiens)	Not Active
Nc1c(Br)cc(Br)cc1CN[C@H]1CC[C@H](O)CC1	Voltage-gated inwardly rectifying potassium channel KCNH2 (Homo sapiens)	Not Active
Cc1onc(-c2ccccc2Cl)c1C(=O)N[C@@H]1C(=O)N2[C@@H]1SC(C)(C)[C@@H]2C(=O)O	Voltage-gated inwardly rectifying potassium channel KCNH2 (Homo sapiens)	Not Active
COc1ccc(C[C@H]2NC[C@H](O)[C@H]2OC(C)=O)cc1	Voltage-gated inwardly rectifying potassium channel KCNH2 (Homo sapiens)	Not Active
COCCc1ccc(OCC(O)CNC(C)C)cc1 (stereo not given)	Voltage-gated inwardly rectifying potassium channel KCNH2 (Homo sapiens)	Not Active

Result for O=c1ncn2nc(Sc3ccc(F)cc3F)ccc2c1-c1c(Cl)cccc1Cl , tested on Voltage-gated inwardly rectifying potassium channel KCNH2 (Homo sapiens), Ki: Not Active

For the molecule CC[C@@H](CO)NC(=O)[C@@H]1C=C2c3cccc4[nH]cc(c34)C[C@H]2N(C)C1 , the measured Ki on Voltage-gated inwardly rectifying potassium channel KCNH2 (Homo sapiens) was Not Active

Case OC(Cn1cncn1)(Cn1cncn1)c1ccc(F)cc1F , Voltage-gated inwardly rectifying potassium channel KCNH2 (Homo sapiens), Ki recorded as Not Active

Sample Cc1ccc2cc3c(ccc4ccccc43)c3c2c1CC3 , system: Voltage-gated inwardly rectifying potassium channel KCNH2 (Homo sapiens). Its Ki is Not Active

// Ki (Voltage-gated inwardly rectifying potassium channel KCNH2 (Homo sapiens)) for NC1=NC(=O)C(c2ccccc2)O1 (stereo not given) = Not Active
